Molecular target: Indoleamine 2,3-dioxygenase 1 (IDO1) (Homo sapiens (Human), UniProt P14902)
Sequence (P14902 whole entry): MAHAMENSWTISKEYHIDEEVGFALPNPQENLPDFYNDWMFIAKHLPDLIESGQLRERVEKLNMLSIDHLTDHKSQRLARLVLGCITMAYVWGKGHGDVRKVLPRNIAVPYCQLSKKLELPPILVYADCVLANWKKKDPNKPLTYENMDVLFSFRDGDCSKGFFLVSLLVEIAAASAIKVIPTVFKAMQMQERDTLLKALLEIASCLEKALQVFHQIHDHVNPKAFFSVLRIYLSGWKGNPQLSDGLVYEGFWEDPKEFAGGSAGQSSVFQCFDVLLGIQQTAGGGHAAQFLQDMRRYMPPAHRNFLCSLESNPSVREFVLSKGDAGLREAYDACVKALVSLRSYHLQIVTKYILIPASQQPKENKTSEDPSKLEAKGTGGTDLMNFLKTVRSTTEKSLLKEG
Assay: Cellular IDO1 assay: kynurenine production in IFN-γ-stimulated HeLa cells, colorimetric
endpointLabel: IC50

[
  {
    "compound": "Cc1cc(C)c2nc3n(c(=O)c2c1)-c1ccc([N+](=O)[O-])cc1C3=O [Compound 48]",
    "endpointLabel": "IC50",
    "recordedResult": "< 50 nM"
  }
]

Quick check: IC50 of O=C1c2cc([N+](=O)[O-])ccc2-n2c1nc1c(F)cccc1c2=O [Compound 41] ?
50 to 500 nM

Quick check: IC50 of N#Cc1ccc2c(c1)C(=O)c1nc3cc(F)ccc3c(=O)n1-2 [Compound 12] ?
< 50 nM

Quick check: IC50 of COC(=O)c1ccc2c(c1)C(=O)c1nc3cc(Cl)ccc3c(=O)n1-2 [Compound 6] ?
50 to 500 nM

Quick check: IC50 of O=C1c2cc([N+](=O)[O-])ccc2-n2c1nc1cccc(F)c1c2=O [Compound 37] ?
< 50 nM

Quick check: IC50 of O=C1c2cc([N+](=O)[O-])ccc2-n2c1nc1c(Br)cc(Cl)cc1c2=O [Compound 47] ?
> 500 nM

Quick check: IC50 of NCCNC(=O)c1ccc2c(c1)C(=O)c1nc3cc(Cl)cc(Cl)c3c(=O)n1-2 [Compound 19] ?
> 500 nM

Quick check: IC50 of O=C1c2cc([N+](=O)[O-])ccc2-n2c1nc1c(Br)c(F)ccc1c2=O [Compound 35] ?
50 to 500 nM

Quick check: IC50 of O=C1c2cc(S(=O)(=O)Cc3ccccc3)ccc2-n2c1nc1cc(F)ccc1c2=O [Compound 33] ?
< 50 nM

Quick check: IC50 of N#Cc1ccc2c(c1)C(=O)c1nc3c(Br)cccc3c(=O)n1-2 [Compound 46] ?
50 to 500 nM

Quick check: IC50 of O=[N+]([O-])c1ccc2c(c1)C(O)C1Nc3cc(F)ccc3CN21 (stereo not drawn) [Compound 21] ?
< 50 nM

Quick check: IC50 of O=C1c2cc([N+](=O)[O-])ccc2-n2c1nc1cnc(O)cc1c2=O [Compound 51] ?
> 500 nM

---

We begin with a simple list: items and their reported IC50.
Biological target: IDO2 (Homo sapiens (Human))
Test: Cellular IDO2 assay, doxycycline and 5-methoxy-L-tryptophan medium, colorimetric
Type: cell-based
Conditions: cellular level, 72 h incubation, signal at 480 nm

Answered examples (2):
[
  {
    "molecule": "O=C1c2cc(SCc3ccccc3)ccc2-n2c1nc1cc(Cl)ccc1c2=O",
    "system": "IDO2 (Homo sapiens (Human))",
    "endpointLabel": "IC50",
    "recordedResult": "0.05 to 0.5 µM"
  },
  {
    "molecule": "[2H]C([2H])(Nc1ccc2c(=O)n3c(nc2c1)C(=O)c1cc(F)ccc1-3)c1ccc(F)cc1",
    "system": "IDO2 (Homo sapiens (Human))",
    "endpointLabel": "IC50",
    "recordedResult": "< 0.05 µM"
  }
]

Quick check: IC50 of CO/N=C1\c2cc(F)ccc2-n2c1nc1cc(CN3CCN(C)CC3)ccc1c2=O ?
> 0.5 µM

Quick check: IC50 of N#Cc1ccc2c(c1)C(=O)c1nc3cc(F)ccc3c(=O)n1-2 ?
< 0.05 µM

Quick check: IC50 of Cc1ccc2nc3n(c(=O)c2c1Cl)-c1ccc(Br)cc1C3=O ?
< 0.05 µM

---

Target: Indoleamine 2,3-dioxygenase 1 (IDO1) (Homo sapiens (Human))
Assay: Cellular IDO1 assay: kynurenine production in IFN-γ-stimulated HeLa cells, colorimetric
We begin with a simple list: items and their reported IC50.

Answered examples (5):
[
  {
    "molecule": "O=C1c2c(F)cc(F)cc2NC2C(O)c3cc([N+](=O)[O-])ccc3N12 (centres unmarked) [Compound 32]",
    "recordedResult": "50 to 500 nM"
  },
  {
    "molecule": "N#Cc1ccc2c(c1)C(=O)c1nc3cc(Cl)ccc3c(=O)n1-2 [Compound 3]",
    "recordedResult": "< 50 nM"
  },
  {
    "molecule": "O=C(O)c1ccc2c(c1)C(=O)c1nc3cc(Cl)cc(Cl)c3c(=O)n1-2 [Compound 22]",
    "recordedResult": "> 500 nM"
  },
  {
    "molecule": "NS(=O)(=O)NCCNC(=O)c1ccc2c(c1)C(=O)c1nc3cc(Cl)ccc3c(=O)n1-2 [Compound 13]",
    "recordedResult": "> 500 nM"
  },
  {
    "molecule": "O=C1c2cc([N+](=O)[O-])ccc2-n2c1nc1c(Br)c(Cl)ccc1c2=O [Compound 50]",
    "recordedResult": "> 500 nM"
  }
]

Quick check: IC50 of CC(C)(C)OC(=O)N1CCN(C(=O)c2ccc3c(c2)C(=O)c2nc4cc(Cl)cc(Cl)c4c(=O)n2-3)CC1 [Compound 26] ?
> 500 nM

Quick check: IC50 of Cc1ccc2c(=O)n3c(nc2c1)C(=O)c1cc([N+](=O)[O-])ccc1-3 [Compound 1] ?
< 50 nM

Quick check: IC50 of O=C1c2cc(C(=O)N3CCNCC3)ccc2-n2c1nc1cc(Cl)cc(Cl)c1c2=O [Compound 25] ?
50 to 500 nM

---

Biological target: IDO2 (Homo sapiens (Human))
Test: Cellular IDO2 assay, doxycycline and 5-methoxy-L-tryptophan medium, colorimetric
Format: cell-based
We begin with a simple list: items and their reported IC50.

[
  {
    "compoundStructure": "O=C1c2cc([N+](=O)[O-])ccc2-n2c1nc1cccc(F)c1c2=O",
    "IC50": "< 50 nM"
  }
]

Now let's try a different one.
Quick check: IC50 of O=C1c2cc([N+](=O)[O-])ccc2-n2c1nc1cc(F)cc(F)c1c2=O ?
< 50 nM

---

We begin with a simple list: items and their reported IC50.
Molecular target: IDO2 (Homo sapiens (Human), UniProt Q6ZQW0)
Sequence (Q6ZQW0 whole entry, species assumed): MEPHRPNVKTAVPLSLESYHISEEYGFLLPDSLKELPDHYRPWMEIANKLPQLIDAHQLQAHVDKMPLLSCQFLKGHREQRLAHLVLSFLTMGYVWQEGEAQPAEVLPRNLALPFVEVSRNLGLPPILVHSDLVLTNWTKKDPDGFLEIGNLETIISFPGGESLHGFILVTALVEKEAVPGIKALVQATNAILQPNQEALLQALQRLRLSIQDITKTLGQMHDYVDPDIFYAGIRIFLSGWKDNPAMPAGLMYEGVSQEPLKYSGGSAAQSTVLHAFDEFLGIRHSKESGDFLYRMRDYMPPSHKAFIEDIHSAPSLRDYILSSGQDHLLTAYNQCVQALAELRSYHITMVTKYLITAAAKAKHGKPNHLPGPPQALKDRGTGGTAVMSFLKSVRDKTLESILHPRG
Assay: Cellular IDO2 assay, doxycycline and 5-methoxy-L-tryptophan medium, colorimetric
Assay type: cell-based
Conditions: cellular level, 72 h incubation, signal at 480 nm

Quick check: IC50 of O=C1c2cc(F)ccc2-n2c1nc1c(OCc3ccc(F)cc3)cccc1c2=O [Compound 124] ?
50 to 500 nM

Quick check: IC50 of CO/N=C1/c2cc(F)ccc2-n2c1nc1ccc(-n3ccnc3)cc1c2=O [Compound 132] ?
< 50 nM

Quick check: IC50 of CC1(O)c2cc(F)ccc2-n2c1nc1ccc(C#N)cc1c2=O (stereo not drawn) [Compound 152] ?
> 500 nM

Quick check: IC50 of CC1(CCC(=O)Nc2ccc3nc4n(c(=O)c3c2)-c2ccc(F)cc2C4=O)N=N1 [Compound 129] ?
< 50 nM

Quick check: IC50 of CS(=O)(=O)c1ccc2c(c1)Cc1nc3cc(F)ccc3c(=O)n1-2 [Compound 85] ?
50 to 500 nM

Quick check: IC50 of O=c1c2ccc(Cl)cc2nc2n1-c1ccc(Br)cc1C2 [Compound 76] ?
< 50 nM

Quick check: IC50 of CON=C1c2cc(F)ccc2-n2c1nc1cc(CNS(C)(=O)=O)ccc1c2=O (stereo in doubt) [Compound 91] ?
< 50 nM

Quick check: IC50 of O=C1c2cc([N+](=O)[O-])ccc2-n2c1nc1cc(F)ccc1c2=O [Compound 2] ?
< 50 nM

Quick check: IC50 of O=C1c2cc(F)ccc2-n2c1nc1c(Br)cccc1c2=O [Compound 44] ?
< 50 nM

Quick check: IC50 of O=C1c2cc([N+](=O)[O-])ccc2-n2c1nc1c(Br)cc(Cl)cc1c2=O [Compound 47] ?
50 to 500 nM

Quick check: IC50 of CN(C)Cc1ccc2nc3n(c(=O)c2c1)-c1ccc(S(=O)(=O)Cc2ccccc2)cc1C3=O [Compound 127] ?
< 50 nM

Quick check: IC50 of O=C1c2cc([N+](=O)[O-])ccc2-n2c1nc1cccc(Br)c1c2=O [Compound 55] ?
> 500 nM

Quick check: IC50 of O=C1c2cc(F)ccc2-n2c1nc1ccc(CNc3ccccn3)cc1c2=O [Compound 141] ?
50 to 500 nM

Quick check: IC50 of CS(=O)(=O)NCc1ccc2c(=O)n3c(nc2c1)C(=O)c1cc(F)ccc1-3 [Compound 95] ?
< 50 nM

Quick check: IC50 of N#Cc1ccc2c(c1)/C(=N\O)c1nc3cc(Cl)ccc3c(=O)n1-2 [Compound 84] ?
< 50 nM

Quick check: IC50 of Cc1c(F)ccc2c(=O)n3c(nc12)C(=O)c1cc([N+](=O)[O-])ccc1-3 [Compound 30] ?
< 50 nM

Quick check: IC50 of O=[N+]([O-])c1ccc2c(c1)C(O)C1Nc3cc(F)ccc3CN21 (stereo not drawn) [Compound 21] ?
< 50 nM

Quick check: IC50 of O=c1c2c(F)cc(F)cc2nc2n1-c1ccc([N+](=O)[O-])cc1C2 [Compound 34] ?
50 to 500 nM
